Origin of values: the METLIN SMRT retention time set (Domingo-Almenara et al. 2019)

- Test protocol: gradient 5% acetonitrile 3 min, to 50% in 2 min, to 85% in 15 min, held 3 min, 100 µL/min
- Condition summary: column: Zorbax Extend-C18 2.1 x 50 mm; eluents: water / acetonitrile, 0.1% formic acid
Observable: RP-LC retention time (s)

# example entries with known answers
{"Compound": "CSc1cccc(N2C=C(C#N)S(=O)(=O)c3ccc(Cl)cc32)c1", "Units": "s", "RP-LC retention time": 961}
{"Compound": "O=C(Nc1cc(-c2ccco2)nn1CCO)c1ccc(S(=O)(=O)N2CCOCC2)cc1", "Units": "s", "RP-LC retention time": 622}
{"Compound": "Cc1ccccc1CC(=O)NCC(=O)Nc1nc2ccccc2[nH]1", "Units": "s", "RP-LC retention time": 639}
{"Compound": "CCc1ccccc1NC(=O)C1CCCN(S(=O)(=O)c2c[nH]c(C(=O)N3CCCCCC3)c2)C1 (centres undefined)", "Units": "s", "RP-LC retention time": 911}
{"Compound": "O=C(CCc1c(-c2ccc(F)cc2)nc2ccccn12)N1CCN(c2ccccc2)CC1", "Units": "s", "RP-LC retention time": 693}
{"Compound": "COc1ccc(-c2noc(N3CCC(C(=O)NCCN4CCOCC4)CC3)n2)cc1OC", "Units": "s", "RP-LC retention time": 591}
{"Compound": "O=C(NC1CCN(c2cc(-c3cccs3)[nH]n2)CC1)c1ccc(F)cc1F", "Units": "s", "RP-LC retention time": 769}
{"Compound": "CCC(=O)N(C1CCOCC1)C1CCN(S(=O)(=O)c2cccnc2)CC1", "Units": "s", "RP-LC retention time": 807}
{"Compound": "Cn1c(=O)c(=O)n(C)c2cc(N3CCOCC3)c(NC(=O)C3CC3)cc21", "Units": "s", "RP-LC retention time": 623}
{"Compound": "CN1C(=O)CCc2cc(NC(=O)C3CCCCC3)ccc21", "Units": "s", "RP-LC retention time": 752}

[a] Cc1ccc(-c2nc3ccccn3c2Nc2ccc(F)cc2)cc1
[b] C=CCn1c2ccccc2c2nnc(SCC(=O)Nc3nc(-c4ccccc4)cs3)nc21
Form: Entry with minimum RP-LC retention time (choose one): a / b Your answer should be the label attached to the chosen record.
a
(a: 717 s, b: 1050 s)

[P] CC(NC(=O)c1ccncc1)C(=O)Nc1nc2ccccc2[nH]1 (centres undefined)
[Q] CC(C)NC(=O)Cn1c2ccccc2n2c(=O)cc(-c3cccc(Cl)c3)nc12
So which one has the bigger RP-LC retention time here, P or Q ? Your answer should be the label attached to the chosen record.
Q
(Q: 926 s, P: 566 s)

[1] Clc1ccccc1-c1nc(-c2ccnc(N3CCOCC3)c2)no1
[2] COc1ccc(NC(=O)Nc2cccc(-c3ccc(N4CCOCC4)nn3)c2)cc1F
So which one has the bigger RP-LC retention time here, 1 or 2 ? Your answer should be the label attached to the chosen record.
1
(1: 994 s, 2: 675 s)

[1] CCC1CCCCN1C(=O)c1cnc2nc(C)ccc2c1Nc1cc(F)ccc1C (centres undefined)
[2] Cc1oc(-c2ccccc2)nc1Cn1cnc2nc3c(cc2c1=O)CC(C)CC3 (centres undefined)
So which one has the bigger RP-LC retention time here, 1 or 2 ? Your answer should be the label attached to the chosen record.
2

[P] CC(=O)N1CCc2cc(N3CC(C(=O)Nc4ccc(Cl)cc4C)CC3=O)ccc21 (centres undefined)
[Q] O=c1c2ccccc2n(Cc2nc(-c3ccccc3)no2)c(=O)n1Cc1ccco1
Form: Entry with minimum RP-LC retention time (choose one): P / Q Your answer should be the label attached to the chosen record.
P
(P: 735 s, Q: 1050 s)

[I] COCCc1noc(C2Cc3ccccc3N2C(=O)Nc2ccc3c(c2)OCCO3)n1 (centres undefined)
[II] CN(C)[C@@H]1CN(C(=O)C2CCCCC2)CC[C@@H]1CO
Form: Entry with minimum RP-LC retention time (choose one): I / II Your answer should be the label attached to the chosen record.
II
(II: 585 s, I: 860 s)

[P] O=C(NC1CC1)c1ccc(OCC2CCN(C(=O)Cc3ccccc3Cl)CC2)cc1
[Q] CCN(CCN(C)C)c1ccc(C(=O)O)cc1NS(=O)(=O)c1ccccc1Cl
So which one has the bigger RP-LC retention time here, P or Q ? Your answer should be the label attached to the chosen record.
P

[P] CC1(C)CS(=O)(=O)N(c2ccc(C(=O)NCCc3c[nH]c4ccccc34)cc2)C1=O
[Q] COc1ccc2[nH]c(=O)c(CCC(=O)NCCc3ccccn3)cc2c1
Form: Entry with minimum RP-LC retention time (choose one): P / Q Your answer should be the label attached to the chosen record.
Q
